Each record here notes measured pEC50.
Assay: Displacement of Cy5-labelled (position-4) ATP from human HSP70 expressed in Escherichia coli BL21(DE3) after 16 hrs by microarray assay
pEC50: −log10 of the molar value.

molecule: COc1ccc(-c2c(O)c(O)c(-c3ccc(OC)cc3)c(OC)c2OC)cc1
pEC50: 4.31
--
molecule: COc1ccc(-c2c(OC)c(O)c(-c3ccc(O)cc3)c(O)c2OC)cc1
pEC50: 4.54
--
molecule: CC[N+]1=C(/C=C/C=C/C=C2/N(CCCCCC(=O)NCCCCCCNc3ncnc4c3ncn4[C@@H]3O[C@H](COP(=O)(O)OP(=O)(O)OP(=O)(O)O)[C@@H](O)[C@H]3O)c3ccc(S(=O)(=O)O)cc3C2(C)C)C(C)(C)c2cc(S(=O)(=O)[O-])ccc21
pEC50: 6.32
--
molecule: Nc1ncnc2c1ncn2[C@@H]1O[C@H](COP(=O)(O)OP(=O)(O)OP(=O)(O)O)[C@@H](O)[C@H]1O [ADENOSINE TRIPHOSPHATE]
pEC50: 9.00
